Each entry below carries its reported protein stability index.
EXPERIMENT_DESCRIPTION: protein stability index of a GFP-peptide fusion (GPS, HEK-293T) (PSI 1-6); higher = more stable;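 note: 24-mer peptide tiles fused after GFP, lentivirally expressed, FACS-sorted into six equal bins by GFP/DsRed ratio, decoded by Illumina sequencing, PSI is the read-weighted mean bin number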
MEASUREMENT_CONTEXT: treatment: MLN4924 1 uM, 8 h; c terminus: a fixed tail appended
Field format: numeric only.

Example entries begin here.
FNEMSAQGLRPRTVSSPIPYTPSP [CCDC6]: 4.12
TISFGSVSPGGVKLEISTKEVPVV [EPB41L3]: 3.31
LKKGSKEKQADFLDKQMSRDEHRA [NFE2L1]: 5.08
LVLLIIIGIPLFFLELAVGQRIRR [SLC6A17]: 3.2

Query (sequence): NGTAWTYHSQDELGGFSHWGRLTS [PKD2L1] ; field requested: protein stability index
2.6

Would you kindly repeat that for AYEFNPELVLVSAGFDAARGDPLG [HDAC6] ?
3.58

Lookup SRQRQSRMEKGEPYMSIQPAEDPD [SMARCE1]
5.57

Moving on to VDGAGKPGAEEAQDPEGKGEQEHS [CHGA]
5.3

Now give it for TLKCLSHHVADAYTSSQKVSPIQI [TOR1AIP2] too.
2.6

Next up: RSVSDQFYRYKMPRLIAKVEGKGN [EIF5]
3.46

Try PFSECGEAVSDSTPFLTNHGAHKA [ZNF263] next.
4.93

What do you get for MTNHQLSTTEWNDETLYQEFNGLK [CHIT1] ?
4.56

Now the sequence RADKNDDGKLSFEEFKAYFADGVL [NECAB1]
3.58

Same for PADPTGNLGGGDPKGWRQLAQEAE [OAS1]
4.97

Cool, now LPPPPPPSRGGNQLPRPPIVGGNK [WAS]
5.01

Request: DGVITASEDRTIRVWLKRDSGQYW [WDFY1]
2.76

How about this sequence: TSCKLTDLRGVCVSGKCEPIGCDG [ADAMTSL2]
3.28

Queued: KADTLKERYQKIGDTKRATPIEVL [CSNK1G3]
4.01
